# assayDetails: A CellTox Green Cytotoxicity Assay to monitor cytotoxicity in HepG2 cells - 24 hour (AID 1224878); also: % is scaled to controls: 0 for no effect and ±100 for the full control effect; nearly all actives have a fitted effect of over 45% in size
# conditions: CellTox Green fluorescence; series mostly up to 76.8 µM
Results filed as inconclusive are left out. Activity calls are given as the source filed them. Calls follow the shape of the dose curve; as a rule, active = well fitted activation curve with a large enough effect in the repeat runs; inconclusive = weak or mixed curves; inactive = flat fitted curve, though single readings scatter.
resultType: cytotoxicity

INSERT INTO results (compound, resulttype, experimentalvalue) VALUES
  ('COc1cc2ncnc(Nc3cccc(Cl)c3)c2cc1OC', 'cytotoxicity', '-17.9% [at 15.8 µM] (inactive)');

stdin: Returns the measured cytotoxicity for the input compound. Input: O=C(O)CN(CCCN(CC(=O)O)CC(=O)O)CC(=O)O
stdout: -12.4% [at 15.8 µM] (inactive)

stdin: Returns the measured cytotoxicity for the input compound. Input: C=CC(=O)OCCOC1C2CCC1C1CC=CC12 (stereo unspecified)
stdout: -5.89% [at 15.8 µM] (inactive)

Just for reference, PubChem BioAssay (Tox21) is where these values come from.
